The measured values listed here are drawn from patent US20250171438A1.

Molecular target: human PAH with the R408W mutation (Homo sapiens, UniProt P00439, R408W)
Construct: expressed in transfected cells
Sequence (P00439 1-452 R408W): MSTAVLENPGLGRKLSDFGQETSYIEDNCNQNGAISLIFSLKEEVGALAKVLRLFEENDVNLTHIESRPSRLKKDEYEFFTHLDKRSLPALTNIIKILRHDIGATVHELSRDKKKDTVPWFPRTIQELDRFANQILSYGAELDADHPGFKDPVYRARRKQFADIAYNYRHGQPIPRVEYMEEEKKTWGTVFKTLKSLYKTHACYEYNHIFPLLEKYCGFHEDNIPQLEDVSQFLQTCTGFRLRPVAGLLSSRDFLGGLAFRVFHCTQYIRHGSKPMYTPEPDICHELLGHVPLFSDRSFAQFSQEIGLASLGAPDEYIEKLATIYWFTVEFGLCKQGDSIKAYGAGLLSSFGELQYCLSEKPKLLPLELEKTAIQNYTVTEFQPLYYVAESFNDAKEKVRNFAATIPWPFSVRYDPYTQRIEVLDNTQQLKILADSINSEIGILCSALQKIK
Test: Cell Based Phenylalanine Flux Assay
Conditions: A375 cells expressing human R408W PAH; 24 hrs with compound; 13C-Tyrosine by LC-MS; average where tested multiple times; read-out: AC50
Let's look at some compounds and their measured AC50.

O=C(c1cnco1)N1CCc2[nH]cnc2C1c1nc2ccc(F)cc2s1 (stereo not drawn) = > 5 µM
CNC(C)(C)c1nc(C)c(C(=O)N2CCc3[nH]cnc3C2c2nc3c(F)cccc3s2)o1 (stereo not drawn) = 1 to 5 µM
O=C(c1ncn2ccccc12)N1CCc2[nH]cnc2C1c1nc2ccc(Br)cc2[nH]1 (stereo not drawn) = > 5 µM
COCCc1ncc(C(=O)N2CCc3[nH]cnc3C2c2nc3ccccc3s2)o1 (stereo not drawn) = 1 to 5 µM
O=C(c1oc(-c2ccccc2)nc1-c1ccccc1)N1CCc2[nH]cnc2C1c1nc2ccccc2s1 (stereo not drawn) = > 5 µM
O=C(Cc1cscn1)N1CCc2[nH]cnc2C1c1nc2ccccc2s1 (stereo not drawn) = > 5 µM
Cc1nnc(CCC(=O)N2CCc3[nH]cnc3C2c2nc3ccccc3s2)o1 (stereo not drawn) = > 5 µM
CC(C)(O)c1cc(C(=O)N2CCc3[nH]cnc3C2c2nc3ccccc3s2)on1 (stereo not drawn) = > 5 µM

Need AC50, item CC(=O)Cn1cc(C(=O)N2CCc3[nH]cnc3C2c2nc3c(F)cccc3s2)cn1 (stereo not drawn)
1 to 5 µM

Further, for CC(C)(C)CCC(=O)N1CCc2[nH]cnc2C1c1nc2ccc(F)cc2s1 (stereo not drawn) ?
1 to 5 µM

Further, for Cn1ncc(C(=O)N2CCc3[nH]cnc3C2c2nc3c(C(F)(F)F)cccc3s2)c1Cl (stereo not drawn) ?
1 to 5 µM

Further, for O=C(Cc1nccs1)N1CCc2[nH]cnc2C1c1nc2c(F)cccc2s1 (stereo not drawn) ?
1 to 5 µM

Further, for O=C(c1nnc(CCN2CC(F)C2)o1)N1CCc2[nH]cnc2C1c1nc2ccccc2s1 (stereo not drawn) ?
> 5 µM

Further, for O=C(c1ncn2ccccc12)N1CCc2[nH]cnc2C1c1nc2ccc(Cl)cc2[nH]1 (stereo not drawn) ?
> 5 µM

----------
molecular target: human PAH with the R408W mutation (Homo sapiens, UniProt P00439, R408W); construct: expressed in transfected cells; assay: Cell Based Phenylalanine Flux Assay; settings: A375 cells expressing human R408W PAH; 24 hrs compound incubation; 13C-Tyrosine by LC-MS; average where tested multiple times; read-out: AC50
Let's look at some molecules and their measured AC50.

Cn1nc(C(F)(F)F)cc1C(=O)N1CCc2[nH]cnc2[C@@H]1c1nc2c(F)cccc2s1 = > 5 µM
CC(C)(O)c1nc(C(F)F)c(C(=O)N2CCc3[nH]cnc3[C@H]2c2nc3ccccc3s2)s1 = < 0.5 µM
O=C(c1ocnc1C1CC1)N1CCCC2NC=NC2[C@H]1c1nc2ccccc2s1 (stereo partly shown) = < 0.5 µM
O=C(c1nc(Cl)cs1)N1CCc2[nH]cnc2[C@@H]1c1nc2cccc(F)c2s1 = 1 to 5 µM
Cc1nn(C)cc1-c1ncc(C(=O)N2CCc3[nH]cnc3[C@@H]2c2nc3ccccc3s2)o1 = 1 to 5 µM

Need AC50, item O=C(CC1CC(F)C1)N1CCc2[nH]cnc2[C@@H]1c1nc2c(F)cccc2s1 (stereo partly shown)
1 to 5 µM

Further, for O=C(c1ccnn1CC(F)(F)F)N1CCc2[nH]cnc2[C@@H]1c1nc2c(F)cccc2s1 ?
1 to 5 µM

Further, for CC(C)(C)CCC(=O)N1CCc2[nH]cnc2[C@H]1c1nc2ccccc2[nH]1 ?
< 0.5 µM

Further, for N#Cc1nc(-c2ccccn2)oc1C(=O)N1CCc2[nH]cnc2[C@@H]1c1nc2ccccc2s1 ?
> 5 µM

Further, for O=C(CC1CC(F)C1)N1CCc2[nH]cnc2[C@H]1c1nc2ccccc2s1 (stereo partly shown) ?
< 0.5 µM

Further, for Cc1ccc2c(C(=O)N3CCc4[nH]cnc4[C@H]3c3nc4c(C)cccc4s3)cnn2c1 ?
0.5 to 1 µM

Further, for CN(C)Cc1ccc2c(C(=O)N3CCc4[nH]cnc4[C@@H]3c3nc4ccccc4s3)cnn2c1 ?
> 5 µM

Further, for Cn1ccc(-c2nnc(C(=O)N3CCc4[nH]cnc4[C@@H]3c3nc4c(F)cccc4s3)o2)n1 ?
0.5 to 1 µM

Further, for O=C(c1ncn2ccccc12)N1CCc2[nH]cnc2[C@H]1c1nc2ccccc2s1 ?
0.5 to 1 µM

Further, for O=C(c1oc(-c2ccccn2)nc1C1CC1)N1CCc2[nH]cnc2[C@H]1c1nc2ccccc2s1 ?
< 0.5 µM

Further, for CC1(C)CCC(c2ncc(C(=O)N3CCc4[nH]cnc4[C@H]3c3nc4ccccc4s3)s2)CC1 ?
< 0.5 µM

----------
Target: human PAH with the R408W mutation (Homo sapiens, UniProt P00439, R408W)
Construct: expressed in transfected cells
Sequence (P00439 1-452 R408W): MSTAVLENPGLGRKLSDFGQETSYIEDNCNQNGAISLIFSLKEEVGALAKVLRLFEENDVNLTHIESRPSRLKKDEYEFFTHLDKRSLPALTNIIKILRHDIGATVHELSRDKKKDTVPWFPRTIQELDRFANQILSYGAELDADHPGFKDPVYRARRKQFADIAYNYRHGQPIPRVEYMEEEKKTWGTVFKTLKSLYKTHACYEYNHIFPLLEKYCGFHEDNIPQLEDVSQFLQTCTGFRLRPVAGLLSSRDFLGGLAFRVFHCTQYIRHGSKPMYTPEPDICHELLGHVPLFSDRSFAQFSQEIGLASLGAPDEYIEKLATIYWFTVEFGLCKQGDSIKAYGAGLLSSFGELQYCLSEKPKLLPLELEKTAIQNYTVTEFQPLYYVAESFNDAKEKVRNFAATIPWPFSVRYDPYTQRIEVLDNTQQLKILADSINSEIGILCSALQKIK
Test: Cell Based Phenylalanine Flux Assay
Details: A375 cells expressing human R408W PAH; 24 hrs with compound; 13C-Tyrosine by LC-MS; average where tested multiple times; read-out: AC50
Let's look at some compounds and their measured AC50.

The examples below pair each entry with its known result.
Clc1csc(CN2CCc3[nH]cnc3C2c2nc3ccccc3[nH]2)n1 (stereo not drawn) = > 5 µM
Cc1nnc(N2CCc3[nH]cnc3[C@H]2c2nc3ccccc3[nH]2)o1 (single isomer, unassigned) = 1 to 5 µM

Now, please, on to the next compound.
Need AC50, item O=C(c1nc2ccccc2s1)N1CCc2[nH]cnc2C1c1nc2ccc(F)cc2[nH]1 (stereo not drawn)
> 5 µM

----------
Let's look at some compounds and their measured AC50.
Biological target: human PAH with the R408W mutation (Homo sapiens, UniProt P00439, R408W)
Construct: expressed in transfected cells
Sequence (P00439 1-452 R408W): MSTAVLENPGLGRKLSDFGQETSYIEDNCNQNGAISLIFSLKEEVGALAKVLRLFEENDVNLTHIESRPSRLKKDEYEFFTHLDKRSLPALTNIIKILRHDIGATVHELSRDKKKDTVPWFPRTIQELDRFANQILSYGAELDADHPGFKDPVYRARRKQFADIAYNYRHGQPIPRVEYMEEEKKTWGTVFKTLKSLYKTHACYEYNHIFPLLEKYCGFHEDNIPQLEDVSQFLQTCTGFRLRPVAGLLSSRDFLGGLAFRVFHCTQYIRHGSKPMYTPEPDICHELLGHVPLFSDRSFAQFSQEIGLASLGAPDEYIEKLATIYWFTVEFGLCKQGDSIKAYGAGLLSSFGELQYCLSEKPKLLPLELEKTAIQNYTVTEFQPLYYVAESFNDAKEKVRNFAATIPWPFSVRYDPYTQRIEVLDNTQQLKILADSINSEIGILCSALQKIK
Assay: Cell Based Phenylalanine Flux Assay
Settings: A375 cells expressing human R408W PAH; 24 hrs with compound; 13C-Tyrosine by LC-MS; average where tested multiple times; read-out: AC50

The examples below pair each entry with its known result.
O=C(CCc1nc2ccccc2o1)N1CCc2[nH]cnc2C1c1nc2ccccc2[nH]1 (stereo not shown) = 1 to 5 µM
O=C(Cc1nc(C(F)(F)F)cs1)N1CCc2[nH]cnc2C1c1nc2c(F)cccc2s1 (stereo not shown) = 1 to 5 µM
Cc1nc(C(=O)N2CCc3[nH]cnc3C2c2nc3c(F)cccc3s2)n(C)n1 (stereo not shown) = 1 to 5 µM
O=C(c1cncs1)N1CCc2[nH]cnc2C1c1nc2ccc(F)cc2s1 (stereo not shown) = 1 to 5 µM
Cc1nnc(CCC(=O)N2CCc3[nH]cnc3C2c2nc3cccc(F)c3s2)s1 (stereo not shown) = > 5 µM
COCCc1ncc(C(=O)N2CC(C)c3[nH]cnc3C2c2nc3ccccc3s2)o1 (stereo not shown) = 1 to 5 µM

Test system human PAH with the R408W mutation (Homo sapiens, UniProt P00439, R408W); read-out AC50; what value for O=C(c1nc2ccc(F)cc2s1)N1CCc2[nH]cnc2C1c1nc2ccccc2s1 (stereo not shown) ?
> 5 µM

Further, for O=C(c1cnco1)N1CCc2[nH]cnc2C1c1nc2cc(F)ccc2s1 (stereo not shown) ?
1 to 5 µM

Further, for O=C(c1ccon1)N1CCc2[nH]cnc2C1c1nc2ccccc2s1 (stereo not shown) ?
> 5 µM

Further, for O=C(c1nccs1)N1CCc2[nH]cnc2[C@H]1c1nc2ccc(F)cc2[nH]1 (single isomer, unassigned) ?
1 to 5 µM
